The values you see were collected from ChEMBL document CHEMBL5390211.

ASSAY_SYSTEM: Galectin-3 (Homo sapiens, UniProt P17931)
Sequence (P17931 whole entry): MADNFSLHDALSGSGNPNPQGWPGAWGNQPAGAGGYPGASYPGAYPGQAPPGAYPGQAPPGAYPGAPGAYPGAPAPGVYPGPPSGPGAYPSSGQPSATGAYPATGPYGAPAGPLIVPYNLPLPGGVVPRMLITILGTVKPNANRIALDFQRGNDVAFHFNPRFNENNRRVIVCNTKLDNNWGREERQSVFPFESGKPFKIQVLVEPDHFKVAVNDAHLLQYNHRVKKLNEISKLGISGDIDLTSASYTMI
TEST_NAME: Binding affinity to human Gal-3 expressed in Escherichia coli BL21 (DE3) cells by competitive fluorescence polarization assay
pKd: −log10 of the molar value.
PROPERTY: pKd

(1) O=C(NS(=O)(=O)c1cc(Cl)c(Cl)s1)c1cc2cc(Oc3ccc(Cl)cc3Br)ccc2[nH]1
(2) O=C(NS(=O)(=O)c1csc2ccccc12)c1cc2cc(Oc3ccc(Cl)c(Cl)c3)ccc2[nH]1
### Prompt Name the one with the greater pKd value, either 1 or 2 as given. Your choice should be expressed through its label.
### Response 2
(2: 4.97, 1: 4.60)

(I) O=C(O)c1ccc(S(=O)(=O)NC(=O)c2cc3cc(Oc4ccc(Cl)c(Cl)c4)ccc3[nH]2)cc1
(II) O=C(NS(=O)(=O)c1cc(Cl)c(Cl)s1)c1cc2cc(Oc3ccc(Br)c(F)c3)ccc2[nH]1
### Prompt Identify the item whose pKd is the smaller number: I or II Your choice should be expressed through its label.
### Response I
(I: 3.92, II: 4.84)

* * *

TEST_NAME: Cytotoxicity against human MRC5 cells assessed as cell viability at 1 uM incubated for 24 hrs by MTT assay relative to control
Format: toxicity, cell-based
EXPERIMENTAL_CONDITIONS: read-out: Activity
Listed below: viability at 24 h, 1 µM values for each entry.
The reply should contain only the number, in %.

>>> df
                                smiles_data  test_value
0  O=C(NS(=O)(=O)c1ccc2ncsc2c1)c1cc2cc(Oc3ccc(Cl)c(Cl)c3)ccc2[nH]1          95

Proceeding to the next compound to report its viability at 24 h, 1 µM.
Just so you know, measured viability at 24 h, 1 µM for O=C(NS(=O)(=O)c1sccc1Cc1ccccc1)c1cc2cc(Oc3ccc(Cl)c(Cl)c3)ccc2[nH]1 came out at 97

* * *

TEST_NAME: Cytotoxicity against human MRC5 cells assessed as cell viability at 10 uM incubated for 24 hrs by MTT assay relative to control
Format: toxicity, cell-based
EXPERIMENTAL_CONDITIONS: read-out: Activity
PROPERTY: viability at 24 h, 10 µM (%)
The reply should contain only the number, in %.

Just so you know, measured viability at 24 h, 10 µM for O=C(NS(=O)(=O)c1ccc2ncsc2c1)c1cc2cc(Oc3ccc(Cl)c(Cl)c3)ccc2[nH]1 came out at 66

Just so you know, measured viability at 24 h, 10 µM for O=C(NS(=O)(=O)c1sccc1Cc1ccccc1)c1cc2cc(Oc3ccc(Cl)c(Cl)c3)ccc2[nH]1 came out at 99

* * *

ASSAY_SYSTEM: Galectin-8 (Homo sapiens, UniProt O00214)
Sequence (O00214 whole entry, the tested form may be a part): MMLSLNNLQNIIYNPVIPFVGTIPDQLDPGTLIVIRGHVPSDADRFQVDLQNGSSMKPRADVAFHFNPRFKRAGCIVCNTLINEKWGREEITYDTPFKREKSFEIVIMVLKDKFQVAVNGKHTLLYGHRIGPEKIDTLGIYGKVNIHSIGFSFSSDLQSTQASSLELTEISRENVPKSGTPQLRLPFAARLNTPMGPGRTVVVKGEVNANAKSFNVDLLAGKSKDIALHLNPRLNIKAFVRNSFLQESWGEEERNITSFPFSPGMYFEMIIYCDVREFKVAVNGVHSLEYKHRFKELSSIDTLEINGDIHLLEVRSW
TEST_NAME: Binding affinity to C-terminal domain human Gal-8 expressed in Escherichia coli BL21 (DE3) cells by competitive fluorescence polarization assay
pKd: −log10 of the molar value.
PROPERTY: pKd

COMPOUND	ASSAY_SYSTEM	pKd
OC[C@H]1O[C@@H](S[C@@H]2O[C@H](CO)[C@H](O)[C@H](n3cc(-c4cccc(F)c4)nn3)[C@H]2O)[C@H](O)[C@@H](n2cc(-c3cccc(F)c3)nn2)[C@H]1O [OLITIGALTIN]	Galectin-8 (Homo sapiens, UniProt O00214)	4.67
O=C(O)c1ccc(S(=O)(=O)NC(=O)c2cc3cc(Oc4ccc(Cl)c(Cl)c4)ccc3[nH]2)cc1	Galectin-8 (Homo sapiens, UniProt O00214)	4.14
O=C(NS(=O)(=O)c1ccc(OC(F)(F)F)cc1)c1cc2cc(Oc3ccc(Cl)c(Cl)c3)ccc2[nH]1	Galectin-8 (Homo sapiens, UniProt O00214)	4.73
O=C(NS(=O)(=O)c1ccc(F)cc1S(=O)(=O)C(F)(F)F)c1cc2cc(Oc3ccc(Cl)c(Cl)c3)ccc2[nH]1	Galectin-8 (Homo sapiens, UniProt O00214)	4.80
O=C(NS(=O)(=O)c1cc(Cl)c(Cl)s1)c1cc2cc(Oc3cccc(Cl)c3Br)ccc2[nH]1	Galectin-8 (Homo sapiens, UniProt O00214)	4.72

(1) O=C(NS(=O)(=O)c1ccc([N+](=O)[O-])cc1)c1cc2cc(Oc3ccc(Cl)c(Cl)c3)ccc2[nH]1
(2) O=C(NS(=O)(=O)c1cc(Cl)c(Cl)s1)c1cc2cc(Oc3ccc(Br)c(F)c3)ccc2[nH]1
(3) O=C(NS(=O)(=O)c1ccn(Cl)n1)c1cc2cc(Oc3ccc(Cl)c(Cl)c3)ccc2[nH]1
### Prompt Put the compounds in ascending order of pKd. Give your ranking as a list of the labels in the requested order.
### Response 3, 1, 2
